test system: K. pneumoniae JIE2713; details: K. pneumoniae JIE2713; MHB (melimine/Mel4 with 0.2% BSA, 0.01% acetic acid); mean MIC
Square brackets hold non-standard residues; d marks the D form. Peptide text beside a SMILES is read from it. Nspe(4-Br) = C[C@H](NCC(=O)O)c1ccc(Br)cc1; N(tridecyl)Gly = CCCCCCCCCCCCCNCC(=O)O; Nspe = C[C@H](NCC(=O)O)c1ccccc1; NDecylGly = CCCCCCCCCCNCC(=O)O; Nlys = NCCCCNCC(=O)O
Recorded MIC of peptidomimetics, one value per entry.
outcome_measure: MIC of peptidomimetics (µg/mL)

>>> measured("C[C@@H](c1ccc(Br)cc1)N(CC(N)=O)C(=O)CN(C(=O)CN(CCCCN)C(=O)CN(C(=O)CN(C(=O)CNCCCCN)[C@@H](C)c1ccccc1)[C@@H](C)c1ccc(Br)cc1)[C@@H](C)c1ccccc1 [TM2] (H-[Nlys][Nspe][Nspe(4-Br)][Nlys][Nspe][Nspe(4-Br)]-NH2)")
125
>>> measured("C[C@@H](c1ccccc1)N(CC(N)=O)C(=O)CN(CCCCN)C(=O)CN(C(=O)CN(C(=O)CN(CCCCN)C(=O)CN(C(=O)CN(C(=O)CN(CCCCN)C(=O)CN(C(=O)CN(C(=O)CNCCCCN)[C@@H](C)c1ccccc1)[C@@H](C)c1ccccc1)[C@@H](C)c1ccccc1)[C@@H](C)c1ccccc1)[C@@H](C)c1ccccc1)[C@@H](C)c1ccccc1 [TM6] (H-[Nlys][Nspe][Nspe][Nlys][Nspe][Nspe][Nlys][Nspe][Nspe][Nlys][Nspe]-NH2)")
62.5
>>> measured("CCCCCCCCCCCCCNCC(=O)N(CCCCN)CC(=O)N(CC(=O)N(CC(=O)N(CCCCN)CC(=O)N(CCCCN)CC(N)=O)[C@@H](C)c1ccccc1)[C@@H](C)c1ccccc1 [TM15] (H-[N(tridecyl)Gly][Nlys][Nspe][Nspe][Nlys][Nlys]-NH2)")
125
>>> measured("C[C@@H](c1ccc(Br)cc1)N(CC(=O)N(CCCCN)CC(=O)N(CC(=O)N(CC(=O)N(CCCCN)CC(N)=O)[C@@H](C)c1ccc(Br)cc1)[C@@H](C)c1ccc(Br)cc1)C(=O)CN(C(=O)CNCCCCN)[C@@H](C)c1ccc(Br)cc1 [TM14] (H-[Nlys][Nspe(4-Br)][Nspe(4-Br)][Nlys][Nspe(4-Br)][Nspe(4-Br)][Nlys]-NH2)")
7.8
>>> measured("C[C@@H](c1ccccc1)N(CC(N)=O)C(=O)CN(C(=O)CN(CCCCN)C(=O)CN(C(=O)CN(C(=O)CN(CCCCN)C(=O)CN(C(=O)CN(C(=O)CN(CCCCN)C(=O)CN(C(=O)CN(C(=O)CNCCCCN)[C@@H](C)c1ccccc1)[C@@H](C)c1ccccc1)[C@@H](C)c1ccccc1)[C@@H](C)c1ccccc1)[C@@H](C)c1ccccc1)[C@@H](C)c1ccccc1)[C@@H](C)c1ccccc1 [TM1] (H-[Nlys][Nspe][Nspe][Nlys][Nspe][Nspe][Nlys][Nspe][Nspe][Nlys][Nspe][Nspe]-NH2)")
62.5
>>> measured("C[C@@H](c1ccc(Br)cc1)N(CC(=O)N(CCCCN)CC(=O)N(CC(=O)N(CC(=O)N(CCCCN)CC(N)=O)[C@@H](C)c1ccc(Br)cc1)[C@@H](C)c1ccccc1)C(=O)CN(C(=O)CNCCCCN)[C@@H](C)c1ccccc1 [TM12] (H-[Nlys][Nspe][Nspe(4-Br)][Nlys][Nspe][Nspe(4-Br)][Nlys]-NH2)")
125
>>> measured("CCCCCCCCCCNCC(=O)N(CCCCN)CC(=O)N(CC(=O)N(CC(=O)N(CCCCN)CC(=O)N(CC(=O)N(CC(N)=O)[C@@H](C)c1ccccc1)[C@@H](C)c1ccccc1)[C@@H](C)c1ccccc1)[C@@H](C)c1ccccc1 [TM8] (H-[NDecylGly][Nlys][Nspe][Nspe][Nlys][Nspe][Nspe]-NH2)")
15.6
